READOUT LABEL: fraction of reaction mixture sedimentable at early time (%)
Output spec: scalar in %, unitless text.

Please indicate fraction of reaction mixture sedimentable at early time recorded for H-KKQQQQQQQQQQQQQQQQQQQQQQQKKAIIGLMVGGVVIA-OH
15
